system: Anopheles stephensi; assay: Anopheles stephensi treated well plate contact test: knockdown and mortality; format: in vivo; details: test compound 20 ppm plus 2 ppm TFNA-AM, after 48 hours
outcome measure: mortality % 48, with TFNA-AM (%)

- compound: "CNC(=O)Oc1cccc2c1OC(C)(C)O2"
  readout number: 100
- compound: "CON=C(C(=O)OC)c1ccccc1CON=C(C)c1cccc(C(F)(F)F)c1"
  readout number: 100
- compound: "CC(C)c1cc(Oc2ccccc2)cc(C(C)C)c1NC(=S)NC(C)(C)C"
  readout number: 80
- compound: "CN/C(=N/CC1CCOC1)N[N+](=O)[O-] (centres unmarked)"
  readout number: 100
- compound: "CNC(=O)Oc1ccccc1OC(C)C"
  readout number: 100
